Just for reference, PubChem BioAssay (NCATS) is where these values come from.

assay: Cell Viability - LYMP2-024 (AID 988); settings: LYMP2-024 lymphoblastoid cell viability; series mostly up to 92.2 µM;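 further: cells exposed to compound for 24 hr at 37 °C; nearly all actives have a fitted effect of over 60% in size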
Inconclusive results are not listed. Active and inactive are the calls of the source. The call rests on the fitted dose curve; in most records, active means well fitted cell-killing curve with a large enough effect; inconclusive means small, poorly fitted or top-dose-only effect; inactive means flat fitted curve, though single readings scatter.
Test readout: outcome

For orientation, consider the following solved cases.
| Molecule | outcome |
| --- | --- |
| CN(C)CCOC(c1ccccc1)c1ccccc1 (tested in a mixture with another compound) | inactive |
| COS(C)(=O)=O | inactive |
| C=C(C)[C@H]1CC=C(C)C(=O)C1 | inactive |
| C=CC(C)(O)CCC=C(C)C (stereo not given) | inactive |

Moving on to another molecule below.
Exercise: For the molecule shown here, CC1=CC(=O)CC(C)(C)C1(O)/C=C/C(C)=C\C(=O)O (stereo not given) , give the reported outcome.
Solution: inactive

---

target: DNA dC->dU-editing enzyme APOBEC-3G (Homo sapiens); assay: qHTS for inhibitors of Vif-A3G interactions: Validation (AID 588379); settings: Vif-A3G protein interaction assay; series mostly up to 46.1 µM
The source made the active and inactive calls. Calls come from the whole dose curve; as a rule, active = well fitted inhibition curve with a large enough effect; inconclusive = small, poorly fitted or top-dose-only effect; inactive = flat fitted curve, though single readings scatter.
Test readout: outcome

Please review the following examples before continuing.
| Compound | Subject of test | Reported measurement |
| --- | --- | --- |
| O=c1[nH]cnc2c1ncn2C1OC(CO)C(O)C1O (centres undefined) | DNA dC->dU-editing enzyme APOBEC-3G (Homo sapiens) | inactive |
| O=C(/C=C/c1ccc(O)c(O)c1)OC(Cc1ccc(O)c(O)c1)C(=O)O (centres undefined) | DNA dC->dU-editing enzyme APOBEC-3G (Homo sapiens) | inactive |
| Clc1cccc2c1CN(C1=NCCN1)C2 | DNA dC->dU-editing enzyme APOBEC-3G (Homo sapiens) | inactive |
| CC(=O)Oc1c(C)c(C)c2c(c1C)CCC(C)(CCCC(C)CCCC(C)CCCC(C)C)O2 (centres undefined) | DNA dC->dU-editing enzyme APOBEC-3G (Homo sapiens) | inactive |
| C=CC(C)(O)CCC=C(C)C (centres undefined) | DNA dC->dU-editing enzyme APOBEC-3G (Homo sapiens) | inactive |

Exercise: Record request: outcome value, item `CC[C@@]12CCCN3CCc4c(n(c5ccccc45)[C@](O)(C(=O)OC)C1)[C@H]32`
Solution: inactive

---

tested on: CP237; test: qHTS profiling for inhibitors of Plasmodium falciparum proliferation (AID 504749); further: nearly all actives have a fitted effect of over 60% in size; conditions: P. falciparum in erythrocytes, SYBR Green DNA, 72 h; series mostly up to 12.8 µM
Results filed as inconclusive are left out. Activity calls are given as the source filed them. Calls come from the whole dose curve; as a rule, active = well fitted inhibition curve with a large enough effect; inconclusive = small, poorly fitted or top-dose-only effect; inactive = flat fitted curve, though single readings scatter.
Test readout: outcome

| Compound | Subject of test | Test readout | Reported measurement |
| --- | --- | --- | --- |
| CC[C@@]12CCCN3CCc4c(n(c5ccccc45)C(=O)C1)[C@H]32 | CP237 | outcome | inactive |
| CC(C)(O/N=C(\C(=O)N[C@@H]1C(=O)N2C(C(=O)[O-])=C(C[n+]3ccccc3)CS[C@@H]12)c1csc(N)n1)C(=O)O | CP237 | outcome | inactive |
| CC[C@]1(C)CC(=O)NC1=O | CP237 | outcome | inactive |
| N[C@@H](CO)C(=O)NNCc1ccc(O)c(O)c1O | CP237 | outcome | inactive |
| CCN1C(=O)N[C@@H](c2ccccc2)C1=O | CP237 | outcome | inactive |
| CO/N=C(/C(=O)NC1C(=O)N2C(C(=O)O)=C(CSc3nc(=O)c(O)nn3C)CSC12)c1csc(N)n1 (stereo not drawn) | CP237 | outcome | inactive |

Exercise: # input compound: `O=C(O)/C=C\c1ccc(Cn2ccnc2)cc1` ; wanted: its outcome
Solution: inactive

Exercise: Can you share its outcome? I mean this compound: `CC(=O)N(CC(O)CN(C(C)=O)c1c(I)c(C(=O)NC[C@@H](O)CO)c(I)c(C(=O)NC[C@@H](O)CO)c1I)c1c(I)c(C(=O)NC[C@@H](O)CO)c(I)c(C(=O)NC[C@@H](O)CO)c1I`
Solution: inactive

Exercise: Request the reported outcome associated with `CC(=O)Nc1c(I)c(C(=O)N[C@H]2[C@@H](O)[C@H](O)[C@H](CO)O[C@@H]2O)c(I)c(N(C)C(C)=O)c1I`
Solution: inactive

Exercise: Return reported outcome; argument: O=c1[nH]cnc2c1ncn2C1OC(CO)C(O)C1O (stereo not drawn)
Solution: inactive

Exercise: GET /values?readout=outcome&item= `COc1ccc(C[C@@H]2c3cc(OC)c(OC)cc3CC[N@+]2(C)CCC(=O)OCCCCCOC(=O)CC[N@@+]2(C)CCc3cc(OC)c(OC)cc3[C@H]2Cc2ccc(OC)c(OC)c2)cc1OC`
Solution: inactive

Exercise: outcome for `C/C=C\C(=O)N(CC)c1ccccc1C` ?
Solution: inactive

Exercise: Quick one: outcome of `CC(=O)O[C@@H](C)C[N+](C)(C)C` ?
Solution: inactive

---

tested on: P93_24; assay: qHTS profiling for inhibitors of Plasmodium falciparum proliferation (AID 504749); further: nearly all actives have a fitted effect of over 60% in size; settings: P. falciparum in erythrocytes, SYBR Green DNA, 72 h; series mostly up to 12.8 µM
Inconclusive results are not listed. The source made the active and inactive calls. The call rests on the fitted dose curve; in most records, active means well fitted inhibition curve with a large enough effect; inconclusive means small, poorly fitted or top-dose-only effect; inactive means flat fitted curve, though single readings scatter.
Form entry, call: pick from active, inactive

Exercise: Please indicate how the test categorized `C[C@@H]1COc2c(N3CCN(C)CC3)c(F)cc3c(=O)c(C(=O)O)cn1c23` .
Solution: inactive

Exercise: Test call, this compound: `CO[C@]1(NC(=O)CSCC#N)C(=O)N2C(C(=O)O)=C(CSc3nnnn3C)CS[C@H]21`
Solution: inactive

Exercise: Would you mind telling me which call this test gave `C[N+]1(C)CCC[C@@H](OC(=O)C(O)(c2ccccc2)c2ccccc2)C1` ?
Solution: inactive

Exercise: For this compound, state the assay outcome: `NS(=O)(=O)c1cc([C@@]2(O)NC(=O)c3ccccc32)ccc1Cl`
Solution: inactive

Exercise: Outcome logged for `CCCN[C@@H](C)C(=O)Nc1c(C)csc1C(=O)OC` in this assay:
Solution: inactive

Exercise: Tell me the assay call for `CC1(C)Oc2ccc(C#N)cc2[C@H](N2CCCC2=O)[C@H]1O` please.
Solution: inactive

Exercise: Please share the test call associated with `CC(C)(O/N=C(\C(=O)N[C@@H]1C(=O)N2C(C(=O)[O-])=C(C[n+]3ccccc3)CS[C@@H]12)c1csc(N)n1)C(=O)O` .
Solution: inactive

Exercise: Assay result, entry CN1[C@@H]2CC[C@H]1CC(OC(=O)[C@@H](O)c1ccccc1)C2 (stereo not given in full) — outcome?
Solution: inactive

Exercise: Dear colleague, could you share the recorded outcome for `CC(C)(C)NC[C@H](O)c1cc(O)cc(O)c1` when you have a moment?
Solution: inactive

Exercise: Which result was noted for this compound in the test: `CCN(CC)CCC[C@H](C)Nc1c2ccc(Cl)cc2nc2ccc(OC)cc12`
Solution: active

---

target: Dual specificity protein kinase CLK4 (Homo sapiens) (UniProt Q9HAZ1); experiment: qHTS Assay for Inhibitors of CDC-like Kinase 4 (ADP-FP Assay) (AID 1795); conditions: Transcreener ADP fluorescence polarization; series mostly up to 50 µM;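 further: recombinant human CLK4 phosphorylating RS repeat peptide at 1 µM ATP; nearly all actives have a fitted effect of over 60% in size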
Sequence (Q9HAZ1 whole entry, looked up): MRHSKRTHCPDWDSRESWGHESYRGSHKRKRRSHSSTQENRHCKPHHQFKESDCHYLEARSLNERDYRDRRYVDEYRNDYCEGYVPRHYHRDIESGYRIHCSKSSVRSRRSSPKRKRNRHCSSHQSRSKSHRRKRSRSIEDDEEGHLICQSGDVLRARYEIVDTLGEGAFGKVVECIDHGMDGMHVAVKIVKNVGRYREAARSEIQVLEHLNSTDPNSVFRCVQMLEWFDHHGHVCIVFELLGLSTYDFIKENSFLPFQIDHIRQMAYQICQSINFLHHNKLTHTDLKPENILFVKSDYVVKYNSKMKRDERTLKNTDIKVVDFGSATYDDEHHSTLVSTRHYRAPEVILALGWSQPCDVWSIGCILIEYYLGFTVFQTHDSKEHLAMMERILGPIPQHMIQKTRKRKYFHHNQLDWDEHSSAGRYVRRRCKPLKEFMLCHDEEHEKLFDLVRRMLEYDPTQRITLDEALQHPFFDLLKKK
Inconclusive results are not listed. The source made the active and inactive calls. Calls follow the shape of the dose curve; as a rule, active = well fitted inhibition curve with a large enough effect; inconclusive = small, poorly fitted or top-dose-only effect; inactive = flat fitted curve, though single readings scatter.
Test readout: outcome

| Sample smiles | Subject of test | Reported measurement |
| --- | --- | --- |
| COc1ccccc1CCn1c(=O)c(-c2cccc(Cl)c2)nc2cncnc21 | Dual specificity protein kinase CLK4 (Homo sapiens) (UniProt Q9HAZ1) | inactive |
| Cc1cccc(CNc2ncncc2-c2ccc(C(=O)N(C)C)cc2)c1 | Dual specificity protein kinase CLK4 (Homo sapiens) (UniProt Q9HAZ1) | inactive |
| COCCn1c(=O)c(-c2ccc(OC)cc2)nc2cnc(N3CCN(C)CC3)nc21 | Dual specificity protein kinase CLK4 (Homo sapiens) (UniProt Q9HAZ1) | inactive |
| COc1ccccc1CNc1nc(-c2cccc(C#N)c2)nc2ccccc12 | Dual specificity protein kinase CLK4 (Homo sapiens) (UniProt Q9HAZ1) | inactive |

Let us examine a further case.
Exercise: I would be grateful if you could share the reported outcome for `CCNc1ncc2nc(-c3cc(F)cc(F)c3)c(=O)n(Cc3ccc(F)cc3)c2n1` .
Solution: inactive

---

target: Ubiquitin carboxyl-terminal hydrolase 1 (Homo sapiens); experiment: Inhibitors of USP1/UAF1: Pilot qHTS (AID 504865); settings: purified USP1/UAF1, Ub-rhodamine cleavage fluorescence; series mostly up to 54.9 µM; further: nearly all actives have a fitted effect of over 35% in size
Records with an inconclusive call do not appear. Active and inactive are the calls of the source. The call rests on the fitted dose curve; in most records, active means well fitted inhibition curve with a large enough effect; inconclusive means small, poorly fitted or top-dose-only effect; inactive means flat fitted curve, though single readings scatter.
# valid calls are TRUE (active), FALSE (inactive); nothing else

Exercise: Recorded test outcome, item `CN(C)Cc1ccccc1-c1cc(-n2ccnc2)ncn1`
Solution: FALSE

Exercise: Hi, sorry to bother you, what did the test record for `CN(Cc1ccco1)c1ccnc(-c2cccnc2)n1` ?
Solution: FALSE

Exercise: Lab log entry: `COC(=O)c1c(OC)cc2c(c1C)Oc1c(Cl)c(O)c(Cl)c(C)c1C(=O)O2` — outcome as called in the assay?
Solution: TRUE

Exercise: What is the recorded call for this compound in the test? `Cc1nc2cnc(Oc3ccccc3)nc2n(C2CC2)c1=O`
Solution: FALSE

Exercise: Please state the recorded outcome for this compound: `CN(C)Cc1ccccc1-c1ccc2ncnc(N(C)Cc3ccco3)c2c1`
Solution: FALSE

Exercise: Write down the call the test reported for this compound. Item: C=CC(C1=CC(=O)C(OC)=CC1=O)c1ccccc1 (stereo unspecified)
Solution: TRUE
